// values below are reported Mortality rate
System: ICR mice
assayMethodText: Acute toxicity test in mice by single administration
Assay type: in vivo
runParameters: single gavage dose 100 mg/kg; 14 days; deaths/animals

- molecule: "COc1cc2c(c(OC)c1OC)-c1ccc(C(=O)Nc3ccccc3)c(=O)cc1[C@@H](NC(C)=O)CC2 [Compound 58]"
  Mortality rate: "0/6"

Query: Report Mortality rate, nothing else, for this molecule: CNC(=O)c1ccc2c(cc1=O)[C@@H](NC(C)=O)CCc1cc(OC)c(OC)c(OC)c1-2 [Compound 48]
Response: 0/6

Query: Report Mortality rate, nothing else, for this molecule: CCNC(=O)c1ccc2c(cc1=O)[C@@H](NC(C)=O)CCc1cc(OC)c(OC)c(OC)c1-2 [Compound 55]
Response: 0/6

Query: Report Mortality rate, nothing else, for this molecule: COC(=O)c1ccc2c(cc1=O)[C@@H](NC(C)=O)CCc1cc(OC)c(OC)c(OC)c1-2 [Compound 34]
Response: 0/6
